Tested on: Enterococcus faecium
assayText: Minimum inhibitory concentration against vancomycin resistant Enterococcus faecium (VRE)
Assay type: functional
Let's look at some compounds and their measured MIC.
Form entry: value (µg/mL) — number only.

Some compounds with known MIC results, for comparison:
structureSmilesString | experimentalReadout | reading
O=C(O)c1cc(-c2c[nH]c3ccc(Br)cc23)nc2cc(Cl)ccc12 | MIC | 25
NCc1cc(-c2c[nH]c3ccc(Br)cc23)nc2cc(Cl)ccc12.O=C(O)C(F)(F)F | MIC | 1.56
NCCNC(=O)c1cc(-c2c[nH]c3ccc(Br)cc23)nc2cc(F)ccc12.O=C(O)C(F)(F)F | MIC | 3.13
NCCNC(=O)c1cc(-c2c[nH]c3ccc(Br)cc23)nc2cc(Cl)cc(Cl)c12.O=C(O)C(F)(F)F | MIC | 1.56
NCCNC(=O)c1cc(-c2c[nH]c3ccc(Br)cc23)nc2cc(Cl)ccc12.O=C(O)C(F)(F)F | MIC | 1.56

Could you now consider this next compound?
Query block: Form field: MIC recorded for Clc1ccc2c(Cl)cc(-c3c[nH]c4ccc(Br)cc34)nc2c1 with Enterococcus faecium (enter value)
Result block: 3.13

---

Test system: Enterococcus faecium
assayText: Minimum inhibitory concentration against vancomycin resistant Enterococcus faecium (VRE)
Format: functional
Could you mark each record yes (1) if its MIC falls strictly under 6 µg/mL, and no (0) if it equals or exceeds it?

structureSmilesString | category
Fc1cccc2[nH]cc(-c3ccc4cc(Cl)ccc4n3)c12 | no (0)
Clc1ccc2nc(-c3c[nH]c4ccc(Cl)cc34)ccc2c1 | no (0)
Fc1ccc2[nH]cc(-c3ccc4cc(Cl)ccc4n3)c2c1 | no (0)
OCc1cc(-c2c[nH]c3ccc(Br)cc23)nc2cc(Cl)ccc12 | yes (1)

Query block: Hello, is MIC of the following compound strictly smaller than 6 µg/mL? N#Cc1ccc2[nH]cc(-c3ccc4cc(Cl)ccc4n3)c2c1
Result block: no (0)

Query block: Hello, is MIC of the following compound strictly smaller than 6 µg/mL? NCCNC(=O)c1cc(-c2c[nH]c3ccc(Br)cc23)nc2c(Cl)cccc12.O=C(O)C(F)(F)F
Result block: yes (1)

Query block: Hello, is MIC of the following compound strictly smaller than 6 µg/mL? NCCNC(=O)c1cc(-c2c[nH]c3ccc(Br)cc23)nc2ccc(Cl)cc12.O=C(O)C(F)(F)F
Result block: yes (1)

Query block: Hello, is MIC of the following compound strictly smaller than 6 µg/mL? Clc1ccc2ccc(-c3c[nH]c4ccc(Br)cc34)nc2c1
Result block: no (0)

Query block: Hello, is MIC of the following compound strictly smaller than 6 µg/mL? COc1ccc2[nH]cc(-c3ccc4cc(Cl)ccc4n3)c2c1
Result block: no (0)

---

Test system: Enterococcus faecium
assayText: Minimum inhibitory concentration against vancomycin resistant Enterococcus faecium (VRE)
Format: functional
Let's look at some compounds and their measured MIC.
Form entry: value (µg/mL) — number only.

Query block: Consider the compound shown here: NCCNC(=O)c1cc(-c2c[nH]c3ccc(Br)cc23)nc2cc(Cl)c(C#CCN3CCCCC3)cc12.O=C(O)C(F)(F)F What is its recorded MIC?
Result block: 6.25

---

Tested on: Enterococcus faecium
assayText: Minimum inhibitory concentration against vancomycin resistant Enterococcus faecium (VRE)
Assay type: functional
experimentalReadout: MIC (µg/mL)
Form entry: value (µg/mL) — number only.

Some compounds with known MIC results, for comparison:
structureSmilesString | assaySystem | reading
Fc1ccc2c(-c3ccc4cc(Cl)ccc4n3)c[nH]c2c1 | Enterococcus faecium | 6.25
NCCNC(=O)c1cc(-c2c[nH]c3ccc(Br)cc23)nc2c(F)cccc12.O=C(O)C(F)(F)F | Enterococcus faecium | 12.5
NCCNC(=O)c1cc(-c2c[nH]c3ccc(Br)cc23)nc2ccccc12.O=C(O)C(F)(F)F | Enterococcus faecium | 25

Could you now consider this next compound?
Query block: Form field: MIC recorded for NCCNC(=O)c1cc(-c2c[nH]c3ccc(Br)cc23)nc2c(Cl)c(Cl)ccc12.O=C(O)C(F)(F)F with Enterococcus faecium (enter value)
Result block: 0.78
